Test: in vivo
Conditions: mouse, 10 mg
measurementName: half-life (min)
I only need the number, in min, no unit after it.

Give the measured half-life of SCCN1CCCC1 . 24

====

Test: in vitro
Details: rat, hepatocytes
measurementName: microsomal CLint (µL/min/mg)
I only need the number, in µL/min/mg, no unit after it.

Give the measured microsomal CLint of SCCN1CCCC1 [Compound 2b] . 15700

====

Assay: Cystine reactivity assay
Parameters: unit not given here
Details: Tables 1-3
Form field: Cystine Reactivity (one value per entry).
No unit in the answer, only the number.

Give the measured Cystine Reactivity of CC(N)CS (centres unmarked) [Compound 3c] . 7733

Give the measured Cystine Reactivity of CC(C)(S)CN [Compound 3a] . 2284
